Biological target: K-Ras G12C (Homo sapiens, UniProt P01116, G12C)
Construct: This protein contained 188 amino acids in total, including an N-terminal 6-Histidine tag; made in house; host or cells: E. coli BL21
Assay: CAF assay (% CAF; method in Example 7, not in this part)
Assay type: binding
Conditions: 10 uM, 1 h; Table 3
Reported % CAF @ 10 uM, 1h values for the following compounds.
Lab book: enter the figure in %, no units written.

C=CC(=O)N1CCN(c2nc(=O)n3c4c(c(-c5ccc(F)cc5F)c(Cl)cc24)SCC3)[C@H](CS(C)(=O)=O)C1 [Example 188]; 89.2
C=CC(=O)N1CCN(c2nc(=O)n3c4c(c(-c5ccc(F)cc5F)c(Cl)cc24)SCC3)[C@@H](CN2CCC2)C1 [Example 169]; 23.3
C=CC(=O)N1CCN(c2nc(=O)n3c4c(c(-c5ccc(F)cc5)c(Cl)cc24)SCC3)[C@@H](C)C1 [Example 151]; 94.1
C=CC(=O)N1CCN(c2nc(=O)n3c4c(c(-c5ccc(F)cc5F)c(Cl)cc24)SC[C@H]3CCCN2C[C@@H]3C[C@H]2CO3)[C@@H](C)C1 [Example 97]; 96.5

Request: Entry C=CC(=O)N1CCN(c2nc(=O)n3c4c(c(-c5ccc(F)cc5F)c(Cl)cc24)SCC3)C[C@H]1C#N [Example 77] has what % CAF @ 10 uM, 1h?
Result: 82

Request: Entry C=CC(=O)N1CCN(c2nc(=O)n3c4c(c(-c5ccc(F)cc5F)c(Cl)cc24)S(=O)(=O)CC3)[C@@H](C)C1 [Example 148] has what % CAF @ 10 uM, 1h?
Result: 95.9

Request: Can you look up the measured % CAF @ 10 uM, 1h of C=CC(=O)N1CCN(c2nc(=O)n3c4c(c(-c5ccc(F)cc5F)c(C5CC5)cc24)SCC3)[C@@H](C)C1 [Example 143] for me?
Result: 95.4

Request: Which % CAF @ 10 uM, 1h is listed for C=CC(=O)N1C2CN(c3nc(=O)n4c5c(c(-c6ccc(F)cc6F)c(Cl)cc35)SCC4)CC1CN(S(C)(=O)=O)C2 [Example 95] ?
Result: 70.5

Request: Report % CAF @ 10 uM, 1h for C=CC(=O)N1CCN(c2nc(=O)n3c4c(c(-c5ccc(F)cc5F)c(Cl)cc24)SCC3CN2CCN(CC)CC2)[C@@H](C)C1 (some centres unmarked) [Example 122] please.
Result: 80.9

Request: For the compound C=CC(=O)N1CCN(c2nc(=O)n3c4c(c(-c5c(F)cc(F)cc5F)c(Cl)cc24)SC[C@@H]3CC2CCN(C)CC2)[C@@H](C)C1 [Example 92] , what % CAF @ 10 uM, 1h is on record?
Result: 96.7

Request: May I ask what % CAF @ 10 uM, 1h has been recorded for C=CC(=O)N1C2CC(=O)CC1CN(c1nc(=O)n3c4c(c(-c5ccc(F)cc5F)c(Cl)cc14)SCC3)C2 [Example 138] ?
Result: 95.8

Request: I would be grateful if you could share the reported % CAF @ 10 uM, 1h for C=CC(=O)N1CCN(c2nc(=O)n3c4c(c(-c5ccc(F)cc5F)c(Cl)cc24)SC[C@@H]3CCCN2C[C@@H]3C[C@H]2CO3)[C@@H](C)C1 [Example 94] .
Result: 94.7

Request: Which % CAF @ 10 uM, 1h is listed for C=CC(=O)N1CCN(c2nc(=O)n3c4c(c(-c5cc(Cl)c(F)cc5F)c(Cl)cc24)SCC3)[C@@H](C)C1 [Example 82] ?
Result: 85.8

Request: Give its % CAF @ 10 uM, 1h value. Item: C=CC(=O)N1CCN(c2nc(=O)n3c4c(c(-c5ccc(F)cc5F)c(Cl)cc24)SCC3)CC1=O [Example 166]
Result: 65.5

Request: Return reported % CAF @ 10 uM, 1h; argument: C=CC(=O)N1CCN(c2nc(=O)n3c4c(c(-c5ccc(F)cc5F)c(Cl)cc24)SC(C)(C)C3)[C@@H](C)C1 [Example 75]
Result: 86.8
